Data provenance: patent US20250289893A1

# system under test: T1, human CD1a expressed on cells (human, UniProt P06126 17-327; P61769 21-119)
# T1 construct: also called HEK - CD1a; C1R - CD1a
# experimental details: flow cytometry, C1R cells, 0.0316 µg/ml antibody
value kind: Fluorescence Intensity Geomean (normalized to background) (fold over background)
Please reply with the bare figure in fold over background and do not write the unit itself.

# count of solved cases: 2
- binder: "110 (VR12112) (antibody, V domains shown, also called OX110; antibody 110) VH: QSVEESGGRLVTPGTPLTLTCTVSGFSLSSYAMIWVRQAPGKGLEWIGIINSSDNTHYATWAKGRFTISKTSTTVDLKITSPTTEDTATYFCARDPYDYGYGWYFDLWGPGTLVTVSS VL: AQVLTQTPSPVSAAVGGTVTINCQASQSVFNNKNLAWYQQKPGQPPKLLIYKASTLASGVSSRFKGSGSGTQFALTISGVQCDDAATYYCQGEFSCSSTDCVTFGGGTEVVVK"
  unit descriptor: "fold over background"
  experimental value: 17.1
- binder: "111 (VR12113) (antibody, V domains shown, also called OX111) VH: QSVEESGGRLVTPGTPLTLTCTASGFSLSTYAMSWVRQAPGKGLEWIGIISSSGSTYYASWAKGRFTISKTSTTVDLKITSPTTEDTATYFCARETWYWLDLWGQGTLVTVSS VL: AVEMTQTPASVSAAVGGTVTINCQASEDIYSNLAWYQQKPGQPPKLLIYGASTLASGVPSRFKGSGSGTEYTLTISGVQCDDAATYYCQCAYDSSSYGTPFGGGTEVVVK"
  unit descriptor: "fold over background"
  experimental value: 26

Shifting focus to the binder that follows.
# input # get_value(readout='Fluorescence Intensity Geomean (normalized to background)', item= 116 (VR12117) (antibody, V domains shown, also called OX116) VH: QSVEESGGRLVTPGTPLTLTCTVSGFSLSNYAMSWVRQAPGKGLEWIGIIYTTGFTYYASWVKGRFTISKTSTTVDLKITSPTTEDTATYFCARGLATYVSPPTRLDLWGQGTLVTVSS VL: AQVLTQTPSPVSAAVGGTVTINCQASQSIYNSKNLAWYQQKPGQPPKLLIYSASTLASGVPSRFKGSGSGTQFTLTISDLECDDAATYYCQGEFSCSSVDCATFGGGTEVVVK )
# output 24.1
